Test system: L-02 cells
Experiment: CCK-8 cytotoxicity assay, normal liver L-02
Assay type: cell-based
Details: Homo sapiens, L02; CCK-8, 48 h, normal liver cells, mean ± SD of three experiments; read-out: IC50 L-02
Protocol: All cells were cultured in Dulbecco’s Modified Eagle’s Medium (DMEM) (Burlington, MA, USA) or Roswell Park Memorial Institute (RPMI)-1640 medium containing 10% fetal bovine serum and 1% penicillin/streptomycin in an incubator at 37 °C and 5% CO2. […] Cell suspension with a concentration of 8 × 10^4 cells/mL was prepared after cell counting. 100 μL cell suspension was added to each well of the 96-well plate and then placed in an incubator overnight. […]
pIC50: −log10 of the molar value.
readout.name: pIC50

INSERT INTO measurements (molecule, measured) VALUES
  ('C[C@H]1CCC/C=C/[C@@H]2C[C@H](O)C[C@H]2[C@H](OC(=O)/C=C\C(=O)OCC#CCOC(=O)c2ccc(N=C=S)cc2)/C=C/C(=O)O1 [Compound 9i]', 4.55);

Okay, next one:
Please give the measured pIC50 for this molecule: C[C@H]1CCC/C=C/[C@@H]2C[C@H](OC(=O)/C=C\C(=O)OCCOC(=O)c3ccc(N=C=S)cc3)C[C@H]2[C@H](OC(=O)/C=C\C(=O)OCCOC(=O)c2ccc(N=C=S)cc2)/C=C/C(=O)O1 [Compound 8g]
< 4.10
